measured_target: UniProt P00374
Sequence (P00374 whole entry): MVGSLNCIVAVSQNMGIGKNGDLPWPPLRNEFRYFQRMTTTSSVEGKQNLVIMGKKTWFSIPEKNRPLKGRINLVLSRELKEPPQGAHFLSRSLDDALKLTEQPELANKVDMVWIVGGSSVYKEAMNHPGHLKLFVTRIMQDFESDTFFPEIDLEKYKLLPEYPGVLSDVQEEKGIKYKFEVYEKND
Give IC50 for every item shown.
Numbers only, in µM.

COc1ccc(-c2nc(N)nc(N)c2OCCCOc2ccccc2CCC(=O)O)cc1 :: 0.7

The record that follows has no IC50 shown yet.
`Nc1ncc(OCCCOc2ccccc2CCC(=O)O)c(N)n1` yielded IC50 of 9.7

----------
Test system: Mycobacteroides abscessus
test_name: Antibacterial activity against Mycobacterium abscessus ATCC 19977 incubated for 2 days by resazurin microtiter assay
Assay type: functional
experimental_context: ATCC 19977, 48 h, time 2 day
result_type: MIC
For clarity, give the value followed by its unit.

Please report MIC for every entry that follows.
1. CCCCCc1nc(N)nc(N)c1OCCCOc1ccccc1CCC(=O)O
2. NCCCc1nc(N)nc(N)c1OCCCOc1ccccc1CCC(=O)O
3. NCC[C@H](O)C(=O)N[C@@H]1C[C@H](N)[C@@H](O[C@H]2O[C@H](CN)[C@@H](O)[C@H](O)[C@H]2O)[C@H](O)[C@H]1O[C@H]1O[C@H](CO)[C@@H](O)[C@H](N)[C@H]1O
4. COc1ccc(-c2nc(N)nc(N)c2OCCCOc2ccccc2CCC(=O)O)cc1

Response:
["0.6 µg/mL", "12.9 µg/mL", "1.7 µg/mL", "0.2 µg/mL"]
